# TEST DETAILS: Stability in mouse liver microsomes assessed as parent compound remaining measured after 60 mins in presence of NADPH by LC-MS/MS analysis
# Assay type: ADME, Microsome
# COND: read-out: Stabilty
In this section we review reported remaining at 1 h values for a set of molecules.
MEASURED ENDPOINT: remaining at 1 h (%)

[[record]]
smiles_entry = "CC(=O)N1CCC(NC(=O)NC23CC4CC(CC(C4)O2)C3)CC1"
reported = 80.5

[[record]]
smiles_entry = "CC(C)S(=O)(=O)N1CCC(NC(=O)NC23CC4CC(CC(C4)O2)C3)CC1"
reported = 63.9

[[record]]
smiles_entry = "O=C(NC1CCN(C(=O)c2ccccc2F)CC1)NC12CC3CC(CC(C3)O1)C2"
reported = 39.5

[[record]]
smiles_entry = "CC(=O)c1ccc(N2CCC(NC(=O)NC34CC5CC(CC(C5)O3)C4)CC2)cc1"
reported = 73

